// provenance: the RNAGym collection of RNA variant scans (doi:10.1073/pnas.2313332121)

B1: TPR t1 (parent)
chain: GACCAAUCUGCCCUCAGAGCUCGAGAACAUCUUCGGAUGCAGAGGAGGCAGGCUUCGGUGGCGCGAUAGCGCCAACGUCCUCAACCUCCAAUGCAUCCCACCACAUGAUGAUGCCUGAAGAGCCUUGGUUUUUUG

- Variants of: B1
- Protocol text: polymerase ribozyme fitness, log enrichment relative to wild type (log ratio); higher = more active; in vitro selection for triplet polymerase activity
Class assignment keyed on polymerase ribozyme fitness (log ratio), ranges band 1: < -3; band 2: ≥ -3 and < -2; band 3: ≥ -2

{"columns": ["Mutations", "Answer label"],
 "data": [
  ["C115U U129A", "band 1"],
  ["G77U A91U", "band 2"],
  ["G52A C72U", "band 3"],
  ["C20A G77U", "band 1"],
  ["C49U G60A A83G U133A", "band 3"],
  ["G42A C88A C98G G110C", "band 1"],
  ["C4A C72U U109A C115U", "band 1"],
  ["A5U U9C C31U G39A G120U", "band 1"],
  ["C13G A18G", "band 1"],
  ["C4A G69U", "band 3"],
  ["A18U C124A U126A", "band 3"],
  ["G45A C49G G60U U106C U112A", "band 3"],
  ["A29U A50U U78A G93C", "band 1"],
  ["C4G C124A", "band 3"],
  ["C56A G60A U116G G135A", "band 1"],
  ["C56G A91U A111C", "band 2"],
  ["A95G", "band 3"],
  ["A46C C72U U81A A105C", "band 1"],
  ["A50U C53U C64G A111U C124U", "band 1"],
  ["A18G U131A", "band 2"]
]}
